Molecular target: Class A carbapenemase KPC-2 (Klebsiella pneumoniae, UniProt Q9F663)
Sequence (Q9F663 25-293 limits assumed): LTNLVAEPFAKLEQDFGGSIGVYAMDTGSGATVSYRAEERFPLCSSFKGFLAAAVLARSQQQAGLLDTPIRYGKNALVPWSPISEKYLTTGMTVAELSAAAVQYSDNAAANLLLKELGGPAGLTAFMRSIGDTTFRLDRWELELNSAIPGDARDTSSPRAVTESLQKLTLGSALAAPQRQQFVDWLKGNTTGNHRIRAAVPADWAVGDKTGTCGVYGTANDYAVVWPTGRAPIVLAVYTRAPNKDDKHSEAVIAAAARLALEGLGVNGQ
Experiment: β-lactamase enzyme inhibition (nitrocefin hydrolysis), KPC-2
Conditions: purified enzyme; nitrocefin 100 μM, PBS pH 7.0; read-out: KPC-2 IC50 Range
Protocol: Isolation of β-lactamases. For all examples, purified beta-lactamase enzymes were used to measure a compounds' ability to inhibit the Class A ESBL CTXM-15, the Class C P99 AmpC and the Class A carbapenemase KPC-2. […] The enzyme preparations are described herein. […] β-lactamase Inhibition. […] Maximum rates of metabolism were then compared to those in control wells (without inhibitors), and percentages of enzyme inhibition were calculated for each concentration of inhibitor. […]
test_readout: IC50

Some solved cases for reference:
[
  {
    "compound": "O=C(N[C@@H](Cc1cccc(C(=O)O)c1O)B(O)O)c1ccc(O)cc1",
    "IC50": "< 0.01 µM"
  },
  {
    "compound": "O=C(N[C@@H](Cc1cccc(C(=O)O)c1O)B(O)O)c1ccc(N2CCOCC2)nc1",
    "IC50": "< 0.01 µM"
  },
  {
    "compound": "CC(=O)Nc1nc(CC(=O)N[C@@H](Cc2cccc(C(=O)O)c2O)B(O)O)cs1",
    "IC50": "< 0.01 µM"
  }
]

The compound Nc1nc(CC(=O)N[C@@H](Cc2cccc(C(=O)O)c2O)B(O)O)cs1.O=CO [Example 39, formate salt] showed IC50 equal to 0.1 to 1 µM

IC50 for O=C(CN1C(=O)c2ccccc2C1=O)N[C@@H](Cc1cccc(C(=O)O)c1O)B(O)O is < 0.01 µM

What the record says about O=C(O)c1cccc(C[C@H](NC(=O)c2cccc3ccccc23)B(O)O)c1O : IC50 is < 0.01 µM

Sample O=C(N[C@@H](Cc1cccc(C(=O)O)c1O)B(O)O)c1ccccc1 ; IC50 observed: < 0.01 µM

Query CCC(=O)N[C@@H](Cc1cccc(C(=O)O)c1O)B(O)O yields IC50 of 0.01 to 0.1 µM

For COc1cccc(C(=O)N[C@@H](Cc2cccc(C(=O)O)c2O)B(O)O)c1 the compound record lists IC50 as < 0.01 µM

Form field IC50, entry O=C(CO)N[C@@H](Cc1cccc(C(=O)O)c1O)B(O)O : 0.01 to 0.1 µM

Memo: O=C(N[C@@H](Cc1cccc(C(=O)O)c1O)B(O)O)c1cccc(-n2ccnc2)c1 , reported IC50: < 0.01 µM

IC50 reported for this compound O=C(Cc1ccccn1)N[C@@H](Cc1cccc(C(=O)O)c1O)B(O)O.O=CO [Example 61, formate salt] : 0.01 to 0.1 µM

IC50 reported for this compound COc1ccc(OC)c(CC(=O)N[C@@H](Cc2cccc(C(=O)O)c2O)B(O)O)c1 : < 0.01 µM

These data points were gathered from patent US20100120715A1.
